Sourced from ChEMBL document CHEMBL4689842

- System: HEK-293T
- assaySummary: Multiplex assay against HEK293T
- Type: toxicity, cell-based
- particulars: human, 24 h, 1 µM, compound concentration 1 uM, replicate 2
propertyMeasured: Total Cell Count
Please respond with just the number, no unit label.

The examples below pair each entry with its known result.
• C=CCn1c(=O)c2cnc(Nc3ccc(N4CCN(C)CC4)cc3)nc2n1-c1cccc(C(C)(C)O)n1 = 1164
• O=C(Nc1ccc(-n2nc(-c3cccnc3)cc2C(F)(F)F)cn1)c1ccc(-c2ccccc2)c(F)c1 = 212
• CCOC(=O)c1c(C)[nH]c2ccc3c(c12)CN1CCc2cc(OC)ccc2C1O3 (centres undefined) = 154

Then this molecule:
Form: molecule = COc1cc2ncnc(Nc3ccc(F)c(Cl)c3)c2cc1NC(=O)/C=C/CN1CCCCC1 [DACOMITINIB ANHYDROUS] ; Total Cell Count = 1906

* * *

Collected Total Cell Count values appear next to each entry.
- System: U2OS
- assaySummary: Multiplex assay against U2OS
- Type: toxicity, cell-based
- particulars: human, 48 h, 1 µM, compound concentration 1 uM, replicate 1
Give a plain numeric answer without units written out.

The cases that follow already have their Total Cell Count on record.
• O=C(Nc1ccc(-n2nc(-c3cccnc3)cc2C(F)(F)F)cn1)c1ccc(-c2ccccc2)c(F)c1 = 200
• O=C(Nc1ccc(Cl)cc1)Nc1cccc(-c2cccc(N3CCCC3)n2)c1 = 245
• O=C1NC(=O)C(c2cnc3ccccn23)=C1c1cn2c3c(cc(F)cc13)CN(C(=O)N1CCCCC1)CC2 = 117

Sure, the documented Total Cell Count for COc1cc(N2CCN(C)CC2)ccc1Nc1ncc2c(n1)N(C)c1ccccc1C(=O)N2C is 182

get_value(item= CCOC(=O)c1c(C)[nH]c2ccc3c(c12)CN1CCc2cc(OC)ccc2C1O3 (stereo not given) , readout=Total Cell Count) returns 115

Query Cl.O=c1c2cccn2c2ccccc2n1CCCN1CCC(c2ccc(Cl)cc2)CC1 yields Total Cell Count of 287

Per the records, this compound ( CCN1CCN(Cc2ccc(Nc3ncc(F)c(-c4cc(F)c5nc(C)n(C(C)C)c5c4)n3)nc2)CC1.CS(=O)(=O)O ) has Total Cell Count equal to 215

Entry Cc1ccc(C(=O)Nc2cccc(C(F)(F)F)c2)cc1Nc1nc(-c2cccnc2)nc2c1cnn2C ; Total Cell Count = 140

Data point: CN1C2CCC1CC(OC(c1ccc(F)cc1)c1ccc(F)cc1)C2.Cl (stereo not given) ; Total Cell Count = 477

For CCc1cccc(CC)c1NC(=O)c1nn(C)c2c1CCc1cnc(Nc3ccc(C(=O)NC4CCN(C)CC4)cc3OC(F)(F)F)nc1-2 the compound record lists Total Cell Count as 179

* * *

- Test system: HEK-293T
- assaySummary: Multiplex assay against HEK293T
- Type: toxicity, cell-based
- particulars: human, 24 h, 1 µM, compound concentration 1 uM, replicate 2
propertyMeasured: Population Mitotic Cells (%)
Quick reminder: number only, in %, skip the unit.

• CCCn1c(=O)c2[nH]c(-c3cnn(Cc4cccc(C(F)(F)F)c4)c3)nc2n(CC)c1=O = 86
• CNC(=O)c1ccc(Nc2nc(OC3CCCC3)c3c(-c4ccc5nc(C)oc5c4)c[nH]c3n2)c(OC)c1 = 56
• COc1cc2ncnc(Nc3ccc(F)c(Cl)c3)c2cc1NC(=O)/C=C/CN1CCCCC1 [DACOMITINIB ANHYDROUS] = 93
• CCN1CCN(Cc2ccc(Nc3ncc(F)c(-c4cc(F)c5nc(C)n(C(C)C)c5c4)n3)nc2)CC1.CS(=O)(=O)O = 48
• Cc1cn(-c2cc(NC(=O)c3ccc(C)c(Nc4nccc(-c5cccnc5)n4)c3)cc(C(F)(F)F)c2)cn1 = 81
• Cc1ccc(C(=O)Nc2cccc(C(F)(F)F)c2)cc1Nc1nc(-c2cccnc2)nc2c1cnn2C = 48

// Population Mitotic Cells (%) value for CCn1cc(-c2ccnc3[nH]c(-c4cccc(CN(C)C)c4)cc23)c(-c2ccc(NC(=O)N(C)C)cc2)n1 : 96

Population Mitotic Cells (%) measured on C=CCn1c(=O)c2cnc(Nc3ccc(N4CCN(C)CC4)cc3)nc2n1-c1cccc(C(C)(C)O)n1 = 83

* * *

- System: Fibroblast
- assaySummary: Multiplex assay against human fibroblast
- Assay type: toxicity, cell-based
- particulars: 12 h, 1 µM, compound concentration 1 uM, replicate 2
Label 1 for high-side Population Mitochondria Different-Phenotype (%) (at or above 10%) and 0 for low-side Population Mitochondria Different-Phenotype (%) (below it).

# example entries with known answers
- CCCn1c(=O)c2[nH]c(-c3cnn(Cc4cccc(C(F)(F)F)c4)c3)nc2n(CC)c1=O [GS 6201]: 0
- CN1CCN(C(=O)C(C)(C)c2ccc(C(=O)Nc3cn4cc(-c5cc(C(C)(C)C)cc(C(C)(C)C)c5)ccc4n3)cc2)CC1 [T3-CLK-N]: 1
- O=C(Nc1ccc(Cl)cc1)Nc1cccc(-c2cccc(N3CCCC3)n2)c1: 0

Data request: Is Population Mitochondria Different-Phenotype (%) for COc1cc(N2CCN(C)CC2)ccc1Nc1ncc2c(n1)N(C)c1ccccc1C(=O)N2C at or above 10%?
Data returned: 1

Data request: Record CNC(=O)c1ccc(Nc2nc(OC3CCCC3)c3c(-c4ccc5nc(C)oc5c4)c[nH]c3n2)c(OC)c1 ; criterion: Population Mitochondria Different-Phenotype (%) no lower than 10%. Met?
Data returned: 0

Data request: Is Population Mitochondria Different-Phenotype (%) at least 10%? Consider CCCS(=O)(=O)c1nc(NC2CC2)cc(-c2ccc3c(ccn3C3CC(C)(C)NC(C)(C)C3)c2)n1
Data returned: 1

Data request: Would you say Cl.Oc1ccc2c3c1O[C@H]1c4[nH]c5c(c4C[C@@]4(O)[C@@H](C2)N(CC2CC2)CC[C@]314)C[C@@]1(O)[C@H]2Cc3ccc(O)c4c3[C@@]1(CCN2CC1CC1)[C@H]5O4 shows Population Mitochondria Different-Phenotype (%) at minimum 10%?
Data returned: 1

* * *

Attribute: Population Mitochondria Different-Phenotype (%)
- Tested on: Fibroblast
- assaySummary: Multiplex assay against human fibroblast
- Format: toxicity, cell-based
- particulars: 24 h, 10 µM, compound concentration 10 uM, replicate 1
Response body: numeric value in %, unit text excluded.

// COC(=N)c1nc2ccc3ncnc(Nc4ccc(OC)cc4F)c3c2s1 : Population Mitochondria Different-Phenotype (%) value = 2

Quick note, Population Mitochondria Different-Phenotype (%) for O=C1NC(=O)C(c2cnc3ccccn23)=C1c1cn2c3c(cc(F)cc13)CN(C(=O)N1CCCCC1)CC2 [LY-2090314] landed at 58

Form: compound = Cc1cn(-c2cc(NC(=O)c3ccc(C)c(Nc4nccc(-c5cccnc5)n4)c3)cc(C(F)(F)F)c2)cn1 [NILOTINIB] ; Population Mitochondria Different-Phenotype (%) = 0

* * *

- Tested on: Fibroblast
- assaySummary: Multiplex assay against human fibroblast
- Format: toxicity, cell-based
- particulars: 12 h, 10 µM, compound concentration 10 uM, replicate 2
propertyMeasured: Population Hoechst High Intensity Objects (%)
I only need the number, in %, no unit after it.

The following compounds have reported results that may help.
* O=C(Nc1ccc(Cl)cc1)Nc1cccc(-c2cccc(N3CCCC3)n2)c1 | 7
* CCOc1cc(C(=O)N2CCC(N3CCN(C)CC3)CC2)ccc1Nc1ncc2c(n1)N(C1CCCC1)c1ccccc1C(=O)N2C | 6
* COc1cc2ncnc(Nc3ccc(F)c(Cl)c3)c2cc1NC(=O)/C=C/CN1CCCCC1 [DACOMITINIB ANHYDROUS] | 35
* CCOc1cc2ncc(C#N)c(Nc3ccc(OCc4ccccn4)c(Cl)c3)c2cc1NC(=O)/C=C/CN(C)C | 27
* COc1cccc2cc(-c3nc([C@H]4CC[C@H](C(=O)O)CC4)n4ncnc(N)c34)[nH]c12 | 31

Memo: O=C(Cc1ccc(-c2ccc(OCCN3CCOCC3)cc2)cn1)NCc1ccccc1 , reported Population Hoechst High Intensity Objects (%): 10

get_value(item= CN(C)C(=O)C(CCN1CCC(O)(c2ccc(Cl)cc2)CC1)(c1ccccc1)c1ccccc1.Cl [LOPERAMIDE HYDROCHLORIDE] , readout=Population Hoechst High Intensity Objects (%)) returns 6

Briefly, Population Hoechst High Intensity Objects (%) measured for O=C1N/C(=N/c2ccccc2F)S/C1=C\c1ccc(C(=O)O)cc1 : 8

Item: O=C(Nc1ccc(-c2ccnc(Nc3ccc(N4CCOCC4)cc3)n2)cc1)[C@@H]1CCCN1 | Population Hoechst High Intensity Objects (%): 5

Short answer for CNc1cc(Oc2cc(C(=O)Nc3cc(N4CCN(C)CC4)cc(C(F)(F)F)c3)ccc2C)ncn1 : Population Hoechst High Intensity Objects (%) was 33

For this compound ( CN1CCN(C(=O)C(C)(C)c2ccc(C(=O)Nc3cn4cc(-c5cc(C(C)(C)C)cc(C(C)(C)C)c5)ccc4n3)cc2)CC1 ), measured Population Hoechst High Intensity Objects (%) is 39

compound CCOC(=O)c1c(C)[nH]c2ccc3c(c12)CN1CCc2cc(OC)ccc2C1O3 (configuration not stated) , Population Hoechst High Intensity Objects (%) observed: 11

Looking up O=C(Nc1ccc(-n2nc(-c3cccnc3)cc2C(F)(F)F)cn1)c1ccc(-c2ccccc2)c(F)c1 , I see its Population Hoechst High Intensity Objects (%) listed as 6

Recorded Population Hoechst High Intensity Objects (%) (compound CCc1cccc(CC)c1NC(=O)c1nn(C)c2c1CCc1cnc(Nc3ccc(C(=O)NC4CCN(C)CC4)cc3OC(F)(F)F)nc1-2 ): 5
